- experiment: Stability in rat hepatocytes
- Assay type: in vitro ADME
- condition_description: 0.5 μM, 60 min
Classify as follows. Reported scaled Clint, rat hepatocytes greater than or equal to 100 mL min^–1 kg^–1: T. Reported scaled Clint, rat hepatocytes below: F.

{"columns": ["molecule", "label"],
 "data": [
  ["CC(=O)N1CC[C@H]2[C@@H]1CCN2[C@H]1CCC[C@@H](NC(=O)c2cc3c(F)ccc(C)c3[nH]2)C1 [compound 9]", "F"],
  ["CC(=O)N1CC[C@H]2CN([C@H]3CCC[C@@H](NC(=O)c4cc5c(F)ccc(C)c5[nH]4)C3)C[C@H]21 [compound 8]", "T"],
  ["Cc1ccc(F)c2cc(C(=O)N[C@@H]3CCC[C@H](N4CCN5C(=O)CC[C@H]5C4)C3)[nH]c12 [compound 7]", "F"],
  ["Cc1ccc(F)c2cc(C(=O)N[C@@H]3CCC[C@H](N4CC[C@H](N(C)S(C)(=O)=O)C4)C3)[nH]c12 [EPZ-719, reference compound]", "T"],
  ["CC(=O)N1CCN([C@H]2CCC[C@@H](NC(=O)c3cc4c(F)ccc(C)c4[nH]3)C2)CC1 [EZM0414]", "T"],
  ["CC(=O)N1CCN(c2cccc(NC(=O)c3cc4c(F)ccc(C)c4[nH]3)c2)CC1 [compound 3]", "T"]
]}
